Biological target: CYP90D1 (Arabidopsis thaliana)
Construct: DNA fragment encoding CYP90D1 mature protein
Sequence (Q94IA6 1-491): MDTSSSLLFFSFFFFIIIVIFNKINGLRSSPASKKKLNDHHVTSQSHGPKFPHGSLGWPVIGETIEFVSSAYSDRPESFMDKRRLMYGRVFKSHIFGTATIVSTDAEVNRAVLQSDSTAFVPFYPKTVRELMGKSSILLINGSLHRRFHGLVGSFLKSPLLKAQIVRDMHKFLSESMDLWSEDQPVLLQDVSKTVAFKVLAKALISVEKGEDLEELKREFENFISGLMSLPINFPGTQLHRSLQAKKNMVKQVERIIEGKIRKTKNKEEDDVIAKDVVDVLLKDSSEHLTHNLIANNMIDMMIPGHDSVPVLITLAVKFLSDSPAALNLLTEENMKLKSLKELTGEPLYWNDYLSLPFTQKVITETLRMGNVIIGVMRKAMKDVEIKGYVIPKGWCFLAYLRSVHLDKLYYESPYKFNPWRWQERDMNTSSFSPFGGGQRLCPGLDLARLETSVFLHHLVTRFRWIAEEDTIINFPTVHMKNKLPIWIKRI
Test: optical difference spectroscopy (type II spectral titration) of purified recombinant CYP90D1
Assay metric: pKd
Quick note: pKd means taking -log10 of the concentration in moles per liter.

Task: Param item = OC(c1ccc(Cl)cc1)(c1cncnc1)c1ccccc1Cl (stereo not shown) [FM, fenarimol] ; retrieve measured pKd.
Output: 6.10

Data origin, for the record: paper PMC4581192
